test_summary: yeast display, Sf9 membrane polyspecificity reagent, FACS + sequencing; frameworks hold sequencing errors
quantity_name: polyreactivity (PSR sort gate)

• QVQLVESGGGLVQAGGSLRLSCAASGSIYPNAMGWNRQAPGKERELVAAIRRSSGSTYADSVKGRFTISRDNAKNTVYLQMNSLKPEDTAVYYCAAEWFAQPVGYDYWGQGTQVTVSS = high polyreactivity
• QVQLVESGGGLFQEGGSLRLSCAPCGLIFFSYAMGWYRQAPGTERELVAAISRLGGRTYYADSVKGRFTISRDNAKNTVYLQMNSLKPEDTAVYYCATRVWTPIFGYEYWGQGTQVTVSS = low polyreactivity
• QVQLVESGGGLVQAGGSLRLSCAASGSIFPPYAMGWYRQAPGKERELVATITIRGGSTYYADSVKGRFTISRDNAKNTVYLQMNSLKPEDTAVYYCAADYTKYYRRYYYWGQGTQVTVSS = high polyreactivity
• QVQLVESGGGLVQAGGSLRLSCAASGRIFPGYAMGWYRQAPGKERELVASISSGGRTYYADSVKGRFTISRDNAKNTVYLQMNSLIPEDTAVYYCNSRHSSYSFRYDYWGQGTQVTVSS = low polyreactivity
• QVQLVESGGGLVQAGGSLRLSCAASGRIFTYNAMGWSRQAPGKERELVATITNGGRTYYADSVKGRFTISRDNAKNTVYLQMNSLKPEDTAVYYCNAGYITYWYAVFYQIDDYWGQGTQVTVSS = low polyreactivity
• QVQLVESGGGLVQAGGSLRLSCAASGRILWGNVMGWYRKAPGKERELVATITHGGSTNYADSVKGRFTISRDNAKNTVYLQMNSLKPEDTAVYYCARATRIQFYRRPYNYWGQGTQVTVSS = high polyreactivity
• QVQLVESGGGLVQAGGSLRLSCAASGFTFGNNGMGWYRQAPGKERELVASISGGGDSTYYADSVKGRFTISRDNAKYTVYLQMNSLKREDTAVYYCAADYRQEPGYTGYYYWGQGTQVTVSS = low polyreactivity
• QVQLVESGGGLVQAGGSLRLSFAASGRTFRYYAMGWYRQAPGKERELVAAISGRGGSTYYADSVKARFTISRDNAKNSVYLQMNRQKPEDTAVYYCAASFYSIRYDYWGQGTQVTVSS = high polyreactivity
• QVQLVESGGGLVQAGGSLRLSCAASGSTFNSYAMGWYRQAPGKERELVAAISRSGGRTYYADSVKGRFTISRDNAKNNVYLQMSSMKPEDTAVYYCAAVHNANRGYPFEYWGQGTQVTVSS = high polyreactivity
• QVQLQESGGGLVQAGGSLRLSCAASGYIFPTAIMGWYLQATGKERKLVAAINPGSNTYYADSVKGRFTFSRDNAKNTVYLQMYSLKPEDAAVYYCAVSIWLEGTLDYWGQGTQVTVSS = low polyreactivity
• QVQLVESGGGLVQAGGSLRLSCAASGFTFAYYAMGWYRQAAGKERELVAAITVSGASTYYADSVKGRFTISRDNAKNTDYLQMNRLKPEETAVYYCARYYAIVSGYYDDGYWGQGTQVTVSS = high polyreactivity

----------
test_summary: yeast display, Sf9 membrane polyspecificity reagent, FACS + sequencing; frameworks hold sequencing errors
quantity_name: polyreactivity (PSR sort gate)

* QVQLVESGGGLVQAGGSLRLSCAASGFTFRYYAMGWYRQAPGKERELVAAISRSDSRTYADSVKGRFTISRDNAKNTVYLQMTSLNPEDTAVYYCAARIRPLYANVRYGYWGQGTQVTVSS | high polyreactivity
* QVQLVESGGGLVQAGGSLRLSCAASGRTFTTYAMGWYRQAPGKERELVAAISDTGGITYYADSVKGRFTISRDNAKNTVYLQMNSLKPEDTAVYYCNAESYRAPYDYWGQCTQVTVSS | low polyreactivity
* QVQLVESGGGLVQAGGSLRLSCAASGRTFYTYAMGWYRQAPGKERELVAAITYSGGRTSYADSVKGRFTISRDNAKNTVYLQMNSLKPEDTAVYYCAARTLGRRLDYGYWGQGTQVSVSS | low polyreactivity
* QVQLVESGGGLVQAGGSLRLSCAASGSTFSRYAMGSYRQAPGKERELVAAITGTGGRTYYADSVKGRFTISRDNAKNTVYLQMNSLKPEDTAVYYCAAQRWTVKYNYWGQGTQVTVSS | high polyreactivity
* QVQLVESGGGLVQAGGSLRLSCAASGRIFAWYTMVWYRQAPGKERELVATISSSGGSTYYADSVKGLFTISRDNAKNTVYLQMNSLKPEDTAVYYCAAQYYPYSYAHRYGYCGQGTQVTVSS | high polyreactivity
* QVQLVESGGGLVQAGGSLRLSCAASGLTLHGNAMGWYSQAPGKERGLVATITSSGGSTFYADSVKGRFTISRDNAKNTVSLQMNSLKPEDTAVFYCNADAPYSDDYYVRFDYWGQGTQVTVSS | low polyreactivity
* QVQLVESGGGLVQAGCSLRLSFAASGRTLVPYSMGWYRQAPGKERELVAAKSSGGSTNYADSVKGRFTISRDNAKNTVYLQMNSLKPEDTAVYSCAAYDSVQKYWILGFDYWGQGTQVTVSS | low polyreactivity
* QDQLVESGGGLDQAGGRLRLSCAASGSIFGVYAMGWYRQAPGKERELVASITWSSGSTNYADSVKGRFTISRDNAKNTVYLQMNSLKPEDTAVYYCNRVYARSQRVVTKFHYDYWGQGTQVTVSS | low polyreactivity
* QVQLVESGGGLVQAGGSLRLSCAASGGIFPDYAMGSYRQAPGKERELVAVISDSGGSTYYADSVKGRFTISRDNAKNTVYLQMNSLKPEDTAVYYCAAETEWYYGYYEYWGQGTQVTVSS | high polyreactivity
* QVQLVESGGGLVQAGGSLRLSCAASGRTFPTNAMGWYRQAPGKERELVARISTRGGSTYYADSVKGRFTISRDNAKNTVYLQMNSLKPEDTAVYYCARRYAVSNQASYYWGQGTQVTVSS | high polyreactivity
* QVQLVESGGGLVQAGGSLRLSCAASGRTLYGNTMGWYRQAPGKERELVAAITNRGGSTTYADSVKGRFTISRDNAKNTVYLQMNSLKPEDTAVYYCNKDVTPLHYDSWGQGTQVTVSS | high polyreactivity

----------
test_summary: yeast display, Sf9 membrane polyspecificity reagent, FACS + sequencing; frameworks hold sequencing errors
quantity_name: polyreactivity (PSR sort gate)

• QDQLVVSGGGLVHAGGSLRLSCAASGRIFHAYGMGWYRQAPGQERELVAAITWRGVSTYYADSVKGRFTISRDNAKNTVYLQMNSLKPEDTAVYYCAARVTPGRNGGGYWGQGTQVTVSS = high polyreactivity
• QVQLVESGGGLVQAGGSLRLSCAASGSVFGKYAMGWYRQAPGKERELVAAISRSGGSTYYADSVKGRFTISRDNAKNTVYLQMNSLKPEDTAVYYCAADSPGPWRYDYWGQGTQVTVSS = high polyreactivity
• QVQLVESGGGLVQAGGSLRLSCAASGSIFKYYAMGWYRQAPGKERELVAAISSTGGSTYYAHSLKGRFTISRDNANYTVYLQMNSLKTEDTAVYYCNTTYIWKNYDYWGQGTQVTVSS = high polyreactivity

----------
test_summary: yeast display, Sf9 membrane polyspecificity reagent, FACS + sequencing; frameworks hold sequencing errors
quantity_name: polyreactivity (PSR sort gate)

* QVQLVESGGGLVQAGGSLRLSCAASGNTFVQNTMGWYRQAPGKERELVAAISSRGGSTYYADSVKGRFTISRDNAKNTVYLQMNSLKPEDTAVYYCAARSKVRRSYDYRGQGTQVTVSS | high polyreactivity
* QVQLVESGGGLVQAGGSLRLSCAASGSIFDNAMGWYRQAPGKERELVASIDQSGGSTYYADSVKGRFTISRDNAKNTVYLQMNSLKPEDTAVYYCAADSFTGYPYEMDYWGQGTQVTVSS | low polyreactivity
* QVQLVESGGGLVQAGGSLRLSCAASGSIFAYNAMGWYRQAPGKERELVATINWIGGRTYYADSVKGRFTISRDNAKNTVYLQMNSLKPEDTAVYYCAKERWYLGVSNGHVLVDYDHWGQGTQVTVSS | low polyreactivity
* QVQLVESGGGLVQAGGSLRLSCAASGFIFEPYAMGWYRQAPGKERELVAAISSGGSTYADSVKGRFTISRDNAKNTVYLQMISLKPEDTAVYYCAADSYYSVWGFYYWGQGTQVTVSS | low polyreactivity
* QVQLVESGGGLVQAGGSLRLSCAASGYIFRYYAMGWYRQAPGKEREFVAAISRNGGSTYYADSVKGRFTISRDNAKNTVYLQMNSLKPEDTAVYYCNKRVGFLYKYDYWGQGTQVTVSS | high polyreactivity

----------
test_summary: yeast display, Sf9 membrane polyspecificity reagent, FACS + sequencing; frameworks hold sequencing errors
quantity_name: polyreactivity (PSR sort gate)

• QVQLVESGGGLVQAGGSLRLSCAASGFTFYVYAMGWYRQAPGKERELVAAISKSGGSTYYADSVKGRFTISRDNAKNTVYLQMNSLKPEDTAVYYCAVYDKRSGYRGGHRYNSWGQGTQVTVSS = high polyreactivity
• QVQLVESGGGLVQAGGSLRLSCDASGFIFWWYAMGWYRQAPGKEREFVAYISWSGARTYYADSVKGRFTISRDNAKNTVYLLMNSLKQEDTAVYYCNADRIGRYYQSYGGGHMDYWGQGTQVNVSS = high polyreactivity
